Target: UniProt:Q9BXF3
Assay: Inhibition of BSP-BODIPY binding to Nanoluc-tagged CECR2 (unknown origin) expressed in HEK293 cells measured after 4 to 6 hrs by NanoBRET assay
Assay type: cell-based
experimental-endpoint: IC50 (nM)

Any idea what its IC50 is? The molecule is `CN1CCc2c(nnn2CC(=O)Nc2ccc(Br)c(S(=O)(=O)N3CC[C@H](C4CC4)C3)c2)C1`
39.8

P = CN1CCc2c(nnn2CC(=O)Nc2ccc(Cl)c(S(=O)(=O)N3CC[C@H](C4CC4)C3)c2)C1
Q = C[C@H]1CCN(S(=O)(=O)c2cc(NC(=O)CN3C(=O)N[C@@](C)(C4CC4)C3=O)ccc2Br)C1
Name the one with the greater IC50 value, either P or Q as given. Bench note: the answer is the label of the chosen record.
Q
(Q: 251 nM, P: 50.1 nM)

====

Target: Bromodomain-containing protein 4 (Homo sapiens, UniProt O60885, Y390A)
Assay: Displacement of Alexa Fluor 647-labeled ligand from BRD4 BD1 Y390A mutant (1 to 477 residue) (unknown origin) measured after 30 mins by TR-FRET assay
pIC50: −log10 of the molar value.
Reported pIC50 is given for each of the following molecules.

A selection of reference data follows.
Any idea what its pIC50 is? The molecule is `O=C(CN1C(=O)CNC1=O)Nc1ccc(Cl)c(S(=O)(=O)N2CCCCC2)c1`
< 4.30

Query `CC1(C)CCN(S(=O)(=O)c2cc(NC(=O)CN3C(=O)CNC3=O)ccc2Cl)C1` next
< 4.30

***
Any idea what its pIC50 is? The molecule is `C[C@H]1CCN(S(=O)(=O)c2cc(NC(=O)Cn3nnc4c3CCNC4)ccc2Br)C1`
4.80

====

Target: Chromatin remodeling regulator CECR2 (Homo sapiens)
Sequence (Q9BXF3 whole entry, the tested form may be a part): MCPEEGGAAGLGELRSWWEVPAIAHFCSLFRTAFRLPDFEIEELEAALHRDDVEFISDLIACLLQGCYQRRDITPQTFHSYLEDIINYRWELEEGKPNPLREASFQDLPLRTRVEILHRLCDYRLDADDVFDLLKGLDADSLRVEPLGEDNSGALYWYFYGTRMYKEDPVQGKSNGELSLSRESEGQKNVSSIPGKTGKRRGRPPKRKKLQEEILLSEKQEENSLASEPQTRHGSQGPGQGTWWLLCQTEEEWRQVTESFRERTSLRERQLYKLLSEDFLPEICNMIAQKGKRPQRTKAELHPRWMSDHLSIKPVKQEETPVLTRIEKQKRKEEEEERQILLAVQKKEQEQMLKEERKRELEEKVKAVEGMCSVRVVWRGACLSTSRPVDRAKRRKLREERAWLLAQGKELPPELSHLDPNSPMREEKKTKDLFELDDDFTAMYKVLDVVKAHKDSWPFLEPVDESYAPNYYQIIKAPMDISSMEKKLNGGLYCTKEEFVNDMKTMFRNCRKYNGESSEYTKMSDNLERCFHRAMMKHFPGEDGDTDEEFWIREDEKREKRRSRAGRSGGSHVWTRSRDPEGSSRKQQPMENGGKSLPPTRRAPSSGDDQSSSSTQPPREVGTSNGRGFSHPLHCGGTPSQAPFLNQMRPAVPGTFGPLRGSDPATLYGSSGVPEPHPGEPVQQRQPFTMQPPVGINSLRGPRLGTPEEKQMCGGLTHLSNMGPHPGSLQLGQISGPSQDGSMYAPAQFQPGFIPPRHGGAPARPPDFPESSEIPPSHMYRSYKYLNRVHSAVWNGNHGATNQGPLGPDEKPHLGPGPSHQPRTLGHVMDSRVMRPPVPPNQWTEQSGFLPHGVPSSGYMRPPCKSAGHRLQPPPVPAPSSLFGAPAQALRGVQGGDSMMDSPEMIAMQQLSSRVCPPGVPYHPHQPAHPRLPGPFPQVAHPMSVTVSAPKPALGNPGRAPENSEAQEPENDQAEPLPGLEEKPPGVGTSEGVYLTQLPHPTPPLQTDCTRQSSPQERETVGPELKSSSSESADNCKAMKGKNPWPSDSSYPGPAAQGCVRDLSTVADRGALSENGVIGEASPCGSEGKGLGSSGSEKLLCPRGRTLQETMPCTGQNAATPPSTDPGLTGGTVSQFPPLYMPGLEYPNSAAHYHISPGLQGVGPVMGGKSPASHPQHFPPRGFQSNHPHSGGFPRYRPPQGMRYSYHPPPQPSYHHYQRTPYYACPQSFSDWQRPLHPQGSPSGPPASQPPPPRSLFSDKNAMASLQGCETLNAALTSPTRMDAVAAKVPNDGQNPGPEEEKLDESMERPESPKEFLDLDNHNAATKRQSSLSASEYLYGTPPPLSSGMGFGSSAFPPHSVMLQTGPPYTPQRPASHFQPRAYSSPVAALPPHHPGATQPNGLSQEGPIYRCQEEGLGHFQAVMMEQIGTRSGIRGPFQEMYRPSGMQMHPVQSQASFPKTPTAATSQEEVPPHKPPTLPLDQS
Assay: Displacement of Alexa Fluor 647-labeled GSK tracer from FLAG-6His-Tev-fused CECR2 (424 to 543 residue) (unknown origin) measured after 15 mins by TR-FRET assay
pIC50: −log10 of the molar value.
experimental-endpoint: pIC50

A selection of reference data follows.
Please provide the recorded pIC50 for `C[C@H]1CCN(S(=O)(=O)c2cc(NC(=O)Cc3coc4ccccc34)ccc2Br)C1` , tested on Chromatin remodeling regulator CECR2 (Homo sapiens).
5.10

Query `C[C@H]1CCN(S(=O)(=O)c2cc(NC(=O)Cn3c(=O)oc4ccccc43)ccc2Br)C1` next
7.20

Query `CCCc1cn(CC(=O)Nc2ccc(Br)c(S(=O)(=O)N3CC[C@H](C)C3)c2)nn1` next
5.80

P = CC1CCCN1S(=O)(=O)c1cc(NC(=O)CN2C(=O)CNC2=O)ccc1Cl (racemic)
Q = CCCc1cnnn1CC(=O)Nc1ccc(Br)c(S(=O)(=O)N2CC[C@H](C)C2)c1
Name the one with the greater pIC50 value, either P or Q as given. Bench note: the answer is the label of the chosen record.
Q
(Q: 7.10, P: 5.10)

a = O=C(CN1C(=O)CNC1=O)Nc1ccc(Cl)c(S(=O)(=O)N2CCC(C3CC3)C2)c1 (racemic)
b = Cc1nnn(CC(=O)Nc2ccc(Br)c(S(=O)(=O)N3CC[C@H](C)C3)c2)c1C
Name the one with the greater pIC50 value, either a or b as given. Bench note: the answer is the label of the chosen record.
a

a = CN(C)S(=O)(=O)c1cc(NC(=O)CN2C(=O)CNC2=O)ccc1Cl
b = CN1CCc2c(nnn2CC(=O)Nc2ccc(Br)c(S(=O)(=O)N3CC[C@@H](C4CC4)C3)c2)C1
c = C[C@@]1(C2CC2)NC(=O)N(CC(=O)Nc2ccc(Br)c(S(=O)(=O)N3CCCC3)c2)C1=O
Exam item: list the entries in increasing order of pIC50. Return the labels ranked in the requested order, please.
a, c, b
(a: 4.10, c: 6.40, b: 7.40)

These data points were gathered from ChEMBL document CHEMBL4354881.
